Parameter: LD50 value. Scope: all listed entries.
Tested on: brine shrimp nauplii (Artemia salina)
TEST: In vivo cytotoxicity, brine shrimp lethality bioassay
ASSAY CONDITIONS: 24 h incubation, 10-80 µg/mL, triplicate
Procedure: The in vivo cytotoxicity of compounds (1–4) isolated from the leaves of C. lanceolata was evaluated to brine shrimp nauplii using vincristine sulfate as standard (Fig. S1 †ESI). […] Brine shrimp lethality bioassay is commonly used in the bioassay for the bioactive compounds [44, 45]. […] After 24 h of incubation, the vials were observed using a magnifying glass, and the number of survivors in each vial were counted and noted. […] All tests were performed in triplicate and expressed as mean.

[
  {
    "COMPOUND": "Cc1c(C(=O)O)ccc(O)c1O [Compound 1, 3,4-dihydroxy-2-methylbenzoic acid]",
    "LD50 value": "23.40 ± 0.02 µg/mL"
  },
  {
    "COMPOUND": "Cc1cc(O)c2c(c1)C(=O)c1cc(O)cc(O)c1C2=O",
    "LD50 value": "13.80 ± 0.03 µg/mL"
  },
  {
    "COMPOUND": "Oc1ccc2ccccc2c1-c1c(O)ccc2ccccc12 [Compound 2, 2,2′-dihydroxy-1,1′-binaphthyl]",
    "LD50 value": "17.78 ± 0.05 µg/mL"
  },
  {
    "COMPOUND": "CC[C@]1(O)C[C@H]2CN(CCc3c([nH]c4ccccc34)[C@@](C(=O)OC)(c3cc4c(cc3OC)N(C=O)[C@H]3[C@@](O)(C(=O)OC)[C@H](OC(C)=O)[C@]5(CC)C=CCN6CC[C@]43[C@@H]65)C2)C1 [Vincristine sulphate, reference compound]",
    "LD50 value": "8.84 ± 0.01 µg/mL"
  },
  {
    "COMPOUND": "COc1cc(/C=C/C(=O)/C=C(O)/C=C/c2ccc(O)c(OC)c2)ccc1O",
    "LD50 value": "11.66 ± 0.04 µg/mL"
  }
]
